Assay: chemical genetic growth profiling, strain panel (AID 1159580);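 also: tested at 20 µM; growth read once vehicle control cultures reached saturation at 30 °C; 1 = growth at the plate median or of vehicle wells; lower values mean less growth of the strain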
Details: S. cerevisiae deletion strains, growth OD, locus YER155C, strain BEM2 (second series), hits give low values
About 2,000 (36%) of roughly 5,500 compounds were called active. Another 18% or so got no clear call; they are omitted. The list shows a part of the results.
quantity_kind: normalized growth

INSERT INTO results (compound, quantitative_result) VALUES
  ('CC(=O)Nc1c(I)cc(I)c(C(=O)O)c1I', 0.977),
  ('Oc1cc2c(cc1O)C(c1ccccc1)CNCC2 (configuration not stated)', 1.01),
  ('NC(Cc1ccc(Cl)cc1)C(=O)O (configuration not stated)', 0.975),
  ('CC(=O)O[C@@H]1C2CC[C@@H]3C1(C[C@@H](O)[C@@]1(O)[C@@H](C[C@H](O)C1(C)C)[C@]3(C)O)C[C@@]2(C)O (some centres not stated)', 0.977),
  ('CC(=O)OC1CCC23CC1(C)CCC2C(C)(C)CC3OC(C)=O (configuration not stated)', 0.99),
  ('COc1cc(O)c2c(c1)C(=O)c1cc(C)cc(O)c1C2=O', 0.973),
  ('CNC(C)(C)Cc1ccccc1', 0.996),
  ('O=C1c2ccccc2C(=O)c2ccccc21', 0.968),
  ('O=C1C=C(O)c2ccccc2C1=O', 0.954),
  ('CON', 1.05),
  ('CC(=O)O[C@H]1CC2CCC3C(CC[C@@]4(C)C3C[C@H]([N+]3(C)CCCCC3)[C@@H]4OC(C)=O)[C@@]2(C)C[C@@H]1N1CCCCC1 (some centres not stated)', 1.03),
  ('CC(=O)OC[C@@]1(O)C[C@@]23CCC4c5ccoc5CC[C@]4(C)C2CC[C@@H]1C3 (some centres not stated)', 0.987),
  ('CC(C)C1CCC(C(=O)N[C@@H](Cc2ccccc2)C(=O)O)CC1 (some centres not stated)', 0.958),
  ('O=C(N[C@@H](CO)[C@H](O)c1ccc([N+](=O)[O-])cc1)C(Cl)Cl', 0.993),
  ('O=C(O)CCC(=O)OC[C@@H](NC(=O)C(Cl)Cl)[C@H](O)c1ccc([N+](=O)[O-])cc1', 1.04),
  ('NNCc1ccccc1', 0.989),
  ('O=C(/C=C/c1ccccc1)c1ccc(O[C@@H]2O[C@H](CO)[C@@H](O)[C@H](O)[C@H]2O)cc1O', 0.853),
  ('COc1cc([C@@H]2c3cc4c(cc3[C@H](O)[C@H]3COC(=O)[C@H]23)OCO4)cc(OC)c1OC', 0.998),
  ('CCCCCCCCCCCCCCCC(=O)OC[C@H](NC(=O)C(Cl)Cl)[C@H](O)c1ccc([N+](=O)[O-])cc1', 1.03),
  ('C/C(=C\CO)CC[C@H](C)CCC[C@H](C)CCCC(C)C', 1.07),
  ('CC(=O)OC1CCC2(O)CC1(C)CCC1C2CC1(C)C (configuration not stated)', 1.05),
  ('O=C(O)c1cc(=O)c2ccccc2[nH]1', 0.981),
  ('Cc1cc2nc3c(=O)[nH]c(=O)nc-3n(CC(O)C(O)C(O)CO)c2cc1C (configuration not stated)', 0.912),
  ('COc1ccccc1OCC(O)COC(N)=O (configuration not stated)', 1),
  ('CCCC(=O)Nc1ccc(OCC(O)CNC(C)C)c(C(C)=O)c1 (configuration not stated)', 0.985),
  ('CCCc1ncc(C[n+]2ccccc2C)c(N)n1', 0.975),
  ('COC(=O)C[C@H]1C(C)(C)[C@@H](OC(C)=O)[C@@H]2CC3=C4CC(=O)O[C@@H](c5ccoc5)[C@]4(C)CCC3[C@@]1(C)C2=O (some centres not stated)', 1.01);

---

Test: chemical genetic growth profiling, strain panel (AID 1159580);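 also: tested at 20 µM; growth read once vehicle control cultures reached saturation at 30 °C; 1 = growth at the plate median or of vehicle wells; lower values mean less growth of the strain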
Details: S. cerevisiae deletion strains, growth OD, locus YJL092W, strain hpr5
The whole screen tested about 5,500 compounds, of which about 2,000 (36%) were called active. Inconclusive results (about 18%) are left out. Rule as the data show it: active = normalized growth mostly below about 0.91 (no sharp cut-off); inconclusive = no clear call, values can overlap the other calls; inactive = mostly above about 0.92. The list shows a part of the results.
Labels: true = active, false = inactive

INSERT INTO results (compound, label_value) VALUES
  ('CC(=O)O[C@H]1CC2CCC3C(CC[C@@]4(C)C3C[C@H]([N+]3(C)CCCCC3)[C@@H]4OC(C)=O)[C@@]2(C)C[C@@H]1N1CCCCC1 (stereo not given in full)', 'false'),
  ('C/C(=C\CO)CC[C@H](C)CCC[C@H](C)CCCC(C)C', 'true'),
  ('Cc1cc2nc3c(=O)[nH]c(=O)nc-3n(CC(O)C(O)C(O)CO)c2cc1C (stereo not given)', 'false'),
  ('COC(=O)CC1C(C)(C(=O)c2ccoc2)CC2OCC34C(CC(=O)OC)C5(C)CC36OC3(C)OC1(C(OC(C)=O)C6(OC(C)=O)C5OC(=O)C(C)C)C24O3 (stereo not given)', 'false'),
  ('CCCN(CCC)c1c([N+](=O)[O-])cc(C(F)(F)F)cc1[N+](=O)[O-]', 'false'),
  ('CCCCCC/C=C\CCCCCCCc1cccc(O)c1C(=O)O', 'false'),
  ('CC(NC(C)(C)C)C(=O)c1cccc(Cl)c1 (stereo not given)', 'false'),
  ('O=C(/C=C/c1ccc(O)cc1)c1ccc(O)cc1O', 'false'),
  ('CO/N=C(/C(=O)NC1C(=O)N2C(C(=O)OCOC(=O)C(C)(C)C)=C(/C=C\c3scnc3C)CSC12)c1csc(N)n1 (stereo not given)', 'false'),
  ('O=c1c(O)c(-c2ccccc2)oc2ccc3occc3c12', 'true'),
  ('ClC1C(Cl)C(Cl)C(Cl)C(Cl)C1Cl (stereo not given)', 'false'),
  ('COc1ccc([C@@H](C)C(=O)c2ccc(O)cc2O)cc1', 'false'),
  ('CC12CCC(O)CC1CCc1ccccc12 (stereo not given)', 'false'),
  ('O=c1c(O)c(-c2ccccc2)oc2cc(O)ccc12', 'true'),
  ('CC(=O)OC1CCC23CC1(C)CCC2C(C)(C)CC3OC(C)=O (stereo not given)', 'false'),
  ('O=C1c2cccc(O)c2C(=O)c2c(O)cccc21', 'false'),
  ('Oc1cc2c(cc1O)C(c1ccccc1)CNCC2 (stereo not given)', 'false'),
  ('CCCCN(CC)c1c([N+](=O)[O-])cc(C(F)(F)F)cc1[N+](=O)[O-]', 'false'),
  ('OC[C@H]1O[C@@H](Oc2ccc(O)cc2)[C@H](O)[C@@H](O)[C@@H]1O', 'false'),
  ('CC12CCC(OC(=O)c3ccccc3)CC1CCc1ccccc12 (stereo not given)', 'false');

---

normalized growth values for the molecules below.
Test: chemical genetic growth profiling, strain panel (AID 1159580);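 also: tested at 20 µM; growth read once vehicle control cultures reached saturation at 30 °C; 1 = growth at the plate median or of vehicle wells; lower values mean less growth of the strain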
Details: S. cerevisiae deletion strains, growth OD, locus YOR231W, strain MKK1, hits give low values
Hit rate of the full screen: of about 5,500 compounds, about 2,000 (36%) were called active. Inconclusive results (about 18%) are left out. This is one part of the list.
quantity_kind: normalized growth

INSERT INTO assay_data (molecule, quantitative_result) VALUES
  ('COc1ccc(OC)c2nc3c(nc12)C(=O)c1ccccc1-3', 0.902),
  ('CC(c1cc2ccccc2s1)N(O)C(N)=O (stereo not given)', 0.967),
  ('Cc1csc2c(N3CCN(C(=S)Nc4ccc(C(F)(F)F)cc4)CC3)ncnc12', 0.928),
  ('Cc1csc2ncnc(N3CCN(C(=O)Nc4ccc(SC(F)(F)F)cc4)CC3)c12', 0.825),
  ('O=C(Nc1ccccc1Sc1ccc(C(F)(F)F)cc1[N+](=O)[O-])C(Cl)Cl', 0.935),
  ('COC1=CC23CCCN2CCc2cc4c(cc2C3C1O)OCO4 (stereo not given)', 0.972),
  ('CC1SC(c2cccnc2)N(c2ccc(F)cc2F)C1=O (stereo not given)', 0.936),
  ('COC1=C(OC)C(=O)C(CCCCCCCCCCO)=C(C)C1=O', 0.972),
  ('COC(=O)c1cccc(NS(=O)(=O)c2ccc(Cl)c(Cl)c2)c1', 0.953),
  ('CC(C)Sc1c(Cl)cccc1NC(=O)Nc1ccccc1', 0.883);

---

Experiment: chemical genetic growth profiling, strain panel (AID 1159580);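 also: tested at 20 µM; growth read once vehicle control cultures reached saturation at 30 °C; 1 = growth at the plate median or of vehicle wells; lower values mean less growth of the strain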
Settings: S. cerevisiae deletion strains, growth OD, locus YNL183C, strain NPR1, hits give low values
Hit rate of the full screen: of about 5,500 compounds, about 2,000 (36%) were called active. Another 18% or so got no clear call; they are omitted. This is one part of the list.
quantity_kind: normalized growth

INSERT INTO measurements (compound, quantitative_result) VALUES
  ('COC(=O)C[C@H]1C(C)(C)[C@@H](OC(C)=O)[C@@H]2CC3=C4CC(=O)O[C@@H](c5ccoc5)[C@]4(C)CCC3[C@@]1(C)C2=O (some centres not stated)', 0.958),
  ('CON', 0.927),
  ('Cn1c(=O)c2c(ncn2C)n(C)c1=O', 0.987),
  ('COC(=O)c1cc(I)c(OC(C)=O)c(I)c1', 0.958),
  ('O=S(=O)(Nc1c(F)cccc1F)c1ccc(Cl)c(Cl)c1', 0.947),
  ('Cc1cc(O)c2c(c1)C(=O)c1cccc(O)c1C2=O', 0.974),
  ('CC(=O)Nc1c(I)cc(I)c(C(=O)O)c1I', 0.968),
  ('COC(=O)c1cccc(NS(=O)(=O)c2ccc(Cl)c(Cl)c2)c1', 1.04),
  ('CC1(C)CC23C(=O)CCC(O)C2(C)CCC13 (configuration not stated)', 0.973),
  ('O=C(CCc1ccc(O)cc1)c1c(O)cc(O)cc1O', 0.947),
  ('CC(=O)CCCCn1c(=O)c2c(ncn2C)n(C)c1=O', 0.924),
  ('N/C(=N/OCc1c(F)cccc1Cl)c1ccc(Cl)cc1', 0.956);
